- System: Escherichia coli
- experimental.protocol: Antibacterial activity against Escherichia coli after 18 hrs by macrodilution test
- Type: functional
Catalogue of MIC readings, one per entry.
Give the value, in units of µg/mL, as a plain number.

- CC(=O)O[C@H]1CC[C@@]2(C)C(=C/C(=N\NC(N)=S)[C@H]3[C@@H]4CC[C@H]([C@H](C)CCCC(C)C)[C@@]4(C)CC[C@@H]32)C1: 128
- CC(C)CCC[C@@H](C)[C@H]1CC[C@H]2[C@@H]3/C(=N/NC(N)=S)C=C4C[C@@H](Cl)CC[C@]4(C)[C@H]3CC[C@]12C: 64

Turning now to a further compound:
IN: MIC for `CC(C)CCC[C@@H](C)[C@H]1CC[C@H]2[C@@H]3/C(=N/Nc4nc5nc6ccccc6nc5s4)C=C4CCCC[C@]4(C)[C@H]3CC[C@]12C` ?
OUT: 128
